Data origin, for the record: the kinase profiling compilation of Christmann-Franck et al. (2016)

- Target Desc: PIK3CB (human)
- Assay Info: KINOMEscan competition binding
- Conditions Used: compound 10.0 µM
Property Label: kinase still bound, per cent of control
Hi, when you answer, please include the unit after the number. Thanks!

Q) Report kinase still bound, per cent of control from PIK3CB (human) testing of O=C(NOC[C@H](O)CO)c1ccc(F)c(F)c1Nc1ccc(I)cc1F
A) 100%

Q) Please respond with reported kinase still bound, per cent of control (system PIK3CB (human)) for Nc1ccc(-c2ccc3ncc4ccc(=O)n(-c5cccc(C(F)(F)F)c5)c4c3c2)cn1 .
A) 6.6%

Q) Recall the reported kinase still bound, per cent of control of C[C@@H](Oc1cc(-n2cnc3ccc(CN4CCN(C)CC4)cc32)sc1C(N)=O)c1ccccc1C(F)(F)F when tested on PIK3CB (human).
A) 0.8%

Q) Supply kinase still bound, per cent of control measured with PIK3CB (human) for O=C(NC1CC1)c1cccc(-c2ccc3c(NC(=O)C4CC4)n[nH]c3c2)c1 .
A) 100%

Q) Provide kinase still bound, per cent of control, tested on PIK3CB (human), for C=CC(=O)Nc1cc(NC(=O)c2ccc(C)c(NC(=O)c3ccno3)c2)cc(C(F)(F)F)c1 .
A) 100%

Q) Would you please give the reported kinase still bound, per cent of control of COc1cc(C(=O)NC2CCN(C)CC2)ccc1Nc1ncc2c(n1)N(C1CCCC1)C(C)CC(=O)N2C (centres undefined) with PIK3CB (human)?
A) 100%

Q) Provide kinase still bound, per cent of control, tested on PIK3CB (human), for COc1cc(N2CCN(C)CC2)ccc1Nc1nc(N)c(C(=O)c2c(Cl)cccc2Cl)s1 .
A) 100%

Q) State recorded kinase still bound, per cent of control with PIK3CB (human), entry Cc1ccc(C(=O)Nc2cccc(C(F)(F)F)c2)cc1Nc1cncc(C(N)=O)c1 , no comment.
A) 100%

Q) Provide kinase still bound, per cent of control, tested on PIK3CB (human), for CCOc1cc2ncc(C#N)c(Nc3ccc(OCc4ccccn4)c(Cl)c3)c2cc1NC(=O)/C=C/CN(C)C .
A) 100%
